This collection of values is drawn from the supplement of paper PMC10567573.

Recorded protein stability index by entry
B1: HESX1 (parent)
chain: SKYENYFSASERLSLKRELSWYRG

variants of: B1; experiment: protein stability index of a GFP-peptide fusion (GPS, HEK-293T) (PSI 1-6); higher = more stable; conditions: c terminus: a fixed tail appended;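 further: lentivirally expressed fusions sorted by FACS into six bins by GFP to DsRed ratio, PSI derived from sequencing read proportions per bin multiplied by bin number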

Sequence Text: SKYENYFSASERLSLKRELSWYYG [R23Y]
protein stability index: 1.12
--
Sequence Text: SKYENYLSASERLSLKRELSWYRG [F7L]
protein stability index: 2.64
--
Sequence Text: SKYENYFSASERLSLKQELSWYRG [R17Q]
protein stability index: 2.29
--
Sequence Text: YKYENYFSASERLSLKRELSWYRG [S1Y]
protein stability index: 2.77
--
Sequence Text: SKLENYFSASERLSLKRELSWYRG [Y3L]
protein stability index: 1.97
--
Sequence Text: SKYENYFSASERLSLKRELSTYRG [W21T]
protein stability index: 2.46
--
Sequence Text: SKYENYFSASERLSSKRELSWYRG [L15S]
protein stability index: 2.41
--
Sequence Text: SFYENYFSASERLSLKRELSWYRG [K2F]
protein stability index: 1.57
--
Sequence Text: SKYENYFEASERLSLKRELSWYRG [S8E]
protein stability index: 1.67
--
Sequence Text: SKYENYFSASERLNLKRELSWYRG [S14N]
protein stability index: 2.25
--
Sequence Text: SKYENYFSASERLSLKRELSQYRG [W21Q]
protein stability index: 2.63
--
Sequence Text: SKYENYFSASEGLSLKRELSWYRG [R12G]
protein stability index: 1.77
--
Sequence Text: SKYENYFSASERSSLKRELSWYRG [L13S]
protein stability index: 2.07
--
Sequence Text: SKYENMFSASERLSLKRELSWYRG [Y6M]
protein stability index: 2.15
--
Sequence Text: SKYENYFSFSERLSLKRELSWYRG [A9F]
protein stability index: 1.51
--
Sequence Text: SKYENYFSASERLSLKCELSWYRG [R17C]
protein stability index: 1.61
--
Sequence Text: SKYENYFSASERLSLKRELSWYAG [R23A]
protein stability index: 1.85
--
Sequence Text: SKYENYFSASERLSLKREPSWYRG [L19P]
protein stability index: 2
--
Sequence Text: SKYENYFSASERLSTKRELSWYRG [L15T]
protein stability index: 1.17
--
Sequence Text: GKYENYFSASERLSLKRELSWYRG [S1G]
protein stability index: 1.9
--
Sequence Text: SKYENYFSASERLSHKRELSWYRG [L15H]
protein stability index: 2.07
--
Sequence Text: SKYENYFSASERLSLKVELSWYRG [R17V]
protein stability index: 3.72
--
Sequence Text: SKYEIYFSASERLSLKRELSWYRG [N5I]
protein stability index: 2.23
--
Sequence Text: SKYENYFSVSERLSLKRELSWYRG [A9V]
protein stability index: 1.41
--
Sequence Text: SEYENYFSASERLSLKRELSWYRG [K2E]
protein stability index: 2.05
--
Sequence Text: SKYENYFSASERLYLKRELSWYRG [S14Y]
protein stability index: 1.92
--
Sequence Text: SKYENYFSASERDSLKRELSWYRG [L13D]
protein stability index: 3.44
--
Sequence Text: SKYENEFSASERLSLKRELSWYRG [Y6E]
protein stability index: 2.3
--
Sequence Text: SKYENYFSASERLSLKREESWYRG [L19E]
protein stability index: 2.08
--
Sequence Text: SKYENYFSASERLSLKRELSMYRG [W21M]
protein stability index: 2.31
--
Sequence Text: SKYEKYFSASERLSLKRELSWYRG [N5K]
protein stability index: 1.42
--
Sequence Text: SKYENYFSASERLSLKRELQWYRG [S20Q]
protein stability index: 1.94
--
Sequence Text: SKYCNYFSASERLSLKRELSWYRG [E4C]
protein stability index: 2.24
--
Sequence Text: SKYENYFSASERLSLKRELSWARG [Y22A]
protein stability index: 1.82
--
Sequence Text: SDYENYFSASERLSLKRELSWYRG [K2D]
protein stability index: 2.19
--
Sequence Text: SKYENYFSASEVLSLKRELSWYRG [R12V]
protein stability index: 1.55
--
Sequence Text: SKYENYFSAQERLSLKRELSWYRG [S10Q]
protein stability index: 2.28
--
Sequence Text: SKYENYFSASERLSLKRESSWYRG [L19S]
protein stability index: 3.25
--
Sequence Text: SKYENYFSASERLSLKRELSWYRE [G24E]
protein stability index: 2.46
--
Sequence Text: SKGENYFSASERLSLKRELSWYRG [Y3G]
protein stability index: 2.75
--
Sequence Text: SKYENYFSASEYLSLKRELSWYRG [R12Y]
protein stability index: 2.01
--
Sequence Text: SKYENYFSCSERLSLKRELSWYRG [A9C]
protein stability index: 2.45
--
Sequence Text: SKYENYFSASERLSLKRELSWYRD [G24D]
protein stability index: 2.12
--
Sequence Text: SKNENYFSASERLSLKRELSWYRG [Y3N]
protein stability index: 1.72
--
Sequence Text: SKYENYFSASERLSLPRELSWYRG [K16P]
protein stability index: 3.04
--
Sequence Text: SKYENYFSASERVSLKRELSWYRG [L13V]
protein stability index: 2.72
